tested on: Vero; test: Cytotoxicity against african green monkey Vero cells by tetrazolium dye reduction assay; format: ADME, cell-based; conditions: Chlorocebus sabaeus
IC50 by entry:

These recorded examples may help you get a feel for the data.
molecule: C[C@H](CCCC(C)(C)O)[C@H]1CC[C@H]2[C@@H]3[C@@H](O)C[C@H]4C[C@@H](O)CC[C@]4(C)[C@H]3CC[C@]12C
IC50: > 128 µM
--
molecule: CC(C)CCC[C@@H](C)[C@H]1CC[C@H]2[C@@H]3[C@H](F)[C@@H](O)[C@H]4C[C@@H](O)CC[C@]4(C)[C@H]3CC[C@]12C
IC50: 41 µM
--
molecule: CC(C)CCC[C@@H](C)[C@H]1CC[C@H]2[C@@H]3CC(=O)[C@H]4C[C@@H](O)CC[C@]4(C)[C@H]3CC[C@]12C [5alpha-CHOLESTAN-3beta-OL-6-ONE]
IC50: 92 µM

Task: Which IC50 value belongs to CC(=O)O[C@H]1CC[C@@]2(C)C(=CC(=O)[C@H]3[C@@H]4CC[C@H]([C@H](C)CCCC(C)C)[C@@]4(C)CC[C@@H]32)C1 [7-OXOCHOLESTERYL ACETATE] ?
Output: > 128 µM

Task: Which IC50 value belongs to CC(C)CCC[C@@H](C)[C@H]1CC[C@H]2[C@@H]3[C@H](F)C(=O)[C@H]4C[C@@H](O)CC[C@]4(C)[C@H]3CC[C@]12C ?
Output: 40 µM

Task: Which IC50 value belongs to NNC(=O)c1ccncc1 [ISONIAZID] ?
Output: > 128 µM

Task: Which IC50 value belongs to CC(=O)O[C@H]1CC[C@@]2(C)[C@@H](CC(=O)[C@@H]3[C@@H]2CC[C@]2(C)[C@@H]([C@H](C)CCCC(C)C)CC[C@@H]32)C1 ?
Output: > 128 µM

Task: Which IC50 value belongs to C[C@H](CCCC(C)(C)O)[C@H]1CC[C@H]2[C@@H]3CC=C4C[C@@H](O)CC[C@]4(C)[C@H]3CC[C@]12C ?
Output: > 128 µM
